# System: Rattus norvegicus
# protocol-text: Antiinflammatory activity in ip dosed Sprague-Dawley rat assessed as inhibition of carrageenan-induced foot paw edema measured 2 hrs post carrageenan challenge by plethysmometry
# Assay type: functional
So basically: is ED50 under 100 mg/kg? Then fulfilled. Not under? Then not fulfilled.

As a guide, the following entries are already answered.
O=C(CN1C(=O)NC(c2ccccc2)(c2ccccc2)C1=O)Nc1ccc(F)cc1 | not fulfilled
O=C(CCN1C(=O)NC(c2ccccc2)(c2ccccc2)C1=O)NCc1ccc(F)cc1 | not fulfilled
COc1ccc(/C=N/NC(=O)CN2C(=O)NC(c3ccccc3)(c3ccccc3)C2=O)cc1 | not fulfilled
COc1ccc(CNC(=O)CN2C(=O)NC(c3ccccc3)(c3ccccc3)C2=O)cc1 | not fulfilled
O=C(CN1C(=O)NC(c2ccccc2)(c2ccccc2)C1=O)NCc1ccccc1 | not fulfilled
COc1ccc(NC(=O)CN2C(=O)NC(c3ccccc3)(c3ccccc3)C2=O)cc1 | not fulfilled
O=C(CN1C(=O)NC(c2ccccc2)(c2ccccc2)C1=O)c1ccccc1 | not fulfilled
O=C(CN1C(=O)NC(c2ccccc2)(c2ccccc2)C1=O)N/N=C/c1ccc(F)cc1 | not fulfilled
COc1cc(CNC(=O)CN2C(=O)NC(c3ccccc3)(c3ccccc3)C2=O)cc(OC)c1OC | fulfilled
O=C(CN1C(=O)NC(c2ccccc2)(c2ccccc2)C1=O)N/N=C/c1ccccc1 | not fulfilled

Inquiry: Say whether its ED50 is strictly beneath 100 mg/kg. Entry: NS(=O)(=O)c1ccc(NC(=O)CCN2C(=O)NC(c3ccccc3)(c3ccccc3)C2=O)cc1
Reply text: fulfilled

----------
# ED50 per record follows
# System: Rattus norvegicus
# protocol-text: Antiinflammatory activity in ip dosed Sprague-Dawley rat assessed as inhibition of carrageenan-induced foot paw edema measured 2 hrs post carrageenan challenge by plethysmometry
# Type: functional
The reply should contain only the number, in mg/kg.

NS(=O)(=O)c1ccc(CNC(=O)CN2C(=O)NC(c3ccccc3)(c3ccccc3)C2=O)cc1 | 75

API: the following record is the query input.
The value of ED50 measured for the molecule NS(=O)(=O)c1ccc(NC(=O)CN2C(=O)NC(c3ccccc3)(c3ccccc3)C2=O)cc1 turned out to be 97

----------
# Tested on: Rattus norvegicus
# protocol-text: Antiinflammatory activity in ip dosed Sprague-Dawley rat assessed as inhibition of carrageenan-induced foot paw edema measured 2 hrs post carrageenan challenge by plethysmometry
# Format: functional
# ED50 per record follows
The reply should contain only the number, in mg/kg.

Guide cases for ED50, answers given:
O=C(CN1C(=O)NC(c2ccccc2)(c2ccccc2)C1=O)NCc1ccc(F)cc1 | 120
COc1ccc(CNC(=O)CCN2C(=O)NC(c3ccccc3)(c3ccccc3)C2=O)cc1 | 112
Cc1ccc(-c2cc(C(F)(F)F)nn2-c2ccc(S(N)(=O)=O)cc2)cc1 | 86.4
O=C(CN1C(=O)NC(c2ccccc2)(c2ccccc2)C1=O)c1ccc(F)cc1 | 156
COc1ccc(NC(=O)CCN2C(=O)NC(c3ccccc3)(c3ccccc3)C2=O)cc1 | 98

The value of ED50 measured for the compound COc1ccc(C(=O)CN2C(=O)NC(c3ccccc3)(c3ccccc3)C2=O)cc1 turned out to be 155

The value of ED50 measured for the compound O=C(CCN1C(=O)NC(c2ccccc2)(c2ccccc2)C1=O)Nc1ccc(F)cc1 turned out to be 123
